As shown below, each of these compounds has a reported Inhibition Zone (IZ) Diameter value.
Test system: A. flavus
measurement-notes: Modified disk diffusion, inhibition zone
run-conditions: A. flavus (fungi)
Respond with the bare value in mm/mL.

Look over these answered cases.
COc1ccc(-c2cc(-c3ccc(Cl)cc3)nc3nc(-c4ccccc4)nn23)cc1
5
Cc1ccc(-c2cc(-c3ccc(C)cc3)n3nc(-c4ccccc4)nc3n2)cc1
22
COc1ccc(-c2cc(-c3ccc(OC)cc3)n3nc(-c4ccccc4)nc3n2)cc1
30

Let us move to another entry and its Inhibition Zone (IZ) Diameter.
For this compound ( COc1ccc(-c2cc(-c3ccc(Cl)cc3)n3nc(-c4ccccc4)nc3n2)cc1 ), measured Inhibition Zone (IZ) Diameter is 32

---

subject-of-test: DHFR E. coli (Escherichia coli)
Sequence (P0ABQ4 whole entry): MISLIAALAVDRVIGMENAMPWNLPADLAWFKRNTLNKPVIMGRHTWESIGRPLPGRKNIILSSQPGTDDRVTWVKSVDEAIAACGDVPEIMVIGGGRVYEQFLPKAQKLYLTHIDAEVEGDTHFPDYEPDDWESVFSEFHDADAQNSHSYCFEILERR
As shown below, each of these compounds has a reported pIC50 value.
FYI, pIC50 means -log10 of a concentration in mol per litre.

Look over these answered cases.
COc1ccc(-c2cc(-c3ccccc3)nc3nc(-c4ccccc4)nn23)cc1
5.23
COc1ccc(-c2cc(-c3ccc(Cl)cc3)n3nc(-c4ccccc4)nc3n2)cc1
5.34
COc1ccc(-c2cc(-c3ccc(OC)cc3)n3nc(-c4ccccc4)nc3n2)cc1
5.27

Let us move to another entry and its pIC50.
For this compound ( COc1ccc(-c2cc(-c3ccc(C)cc3)n3nc(-c4ccccc4)nc3n2)cc1 ), measured pIC50 is 5.41

---

As shown below, each of these compounds has a reported MBC value.
Test system: E. coli
measurement-notes: Minimum bactericidal concentration (MBC) assay
Assay type: cell-based, Escherichia coli
run-conditions: Escherichia coli, read-out: MBC
Respond with the bare value in µM.

COc1ccc(-c2cc(-c3ccc(Cl)cc3)n3nc(-c4ccccc4)nc3n2)cc1 [Compound 9n]
0.093
COc1ccc(-c2cc(-c3ccc(C)cc3)n3nc(-c4ccccc4)nc3n2)cc1 [Compound 9o]
0.087
COc1ccc(-c2cc(-c3ccc(OC)cc3)n3nc(-c4ccccc4)nc3n2)cc1 [Compound 9p]
0.097
COc1ccc(-c2cc(-c3ccccc3)nc3nc(-c4ccccc4)nn23)cc1 [Compound 9d]
0.102

Let us move to another entry and its MBC.
For this compound ( O=C(O)c1cn(C2CC2)c2cc(N3CCNCC3)c(F)cc2c1=O [Ciprofloxacin, reference compound] ), measured MBC is 0.09

---

System: A. flavus
measurement-notes: Modified disk diffusion, inhibition zone
run-conditions: A. flavus (fungi)
As shown below, each of these compounds has a reported Inhibition Zone (IZ) Diameter value.

Look over these answered cases.
c1ccc(-c2cc(-c3ccccc3)n3nc(-c4ccccc4)nc3n2)cc1
7 mm/mL
Cc1ccc(-c2cc(-c3ccccc3)nc3nc(-c4ccccc4)nn23)cc1
7 mm/mL
Cc1ccc(-c2cc(-c3ccccc3)n3nc(-c4ccccc4)nc3n2)cc1
17 mm/mL
COc1ccc(-c2cc(-c3ccccc3)nc3nc(-c4ccccc4)nn23)cc1
27 mm/mL

Let us move to another entry and its Inhibition Zone (IZ) Diameter.
For this compound ( Cc1ccc(-c2cc(-c3ccc(Cl)cc3)n3nc(-c4ccccc4)nc3n2)cc1 ), measured Inhibition Zone (IZ) Diameter is 10 mm/mL

---

// IC50 collected for E. coli DNA gyrase (Escherichia coli, UniProt P0AES6)
Respond with the bare value in nM.

COc1ccc(-c2cc(-c3ccccc3)nc3nc(-c4ccccc4)nn23)cc1
217

For this molecule ( COc1ccc(-c2cc(-c3ccc(OC)cc3)n3nc(-c4ccccc4)nc3n2)cc1 ), measured IC50 is 205

For this molecule ( COc1ccc(-c2cc(-c3ccc(Cl)cc3)n3nc(-c4ccccc4)nc3n2)cc1 ), measured IC50 is 190

For this molecule ( COc1ccc(-c2cc(-c3ccc(C)cc3)n3nc(-c4ccccc4)nc3n2)cc1 ), measured IC50 is 182

---

endpoint: melting point

Look over these answered cases.
Cc1ccc(-c2cc(-c3ccccc3)nc3nc(-c4ccccc4)nn23)cc1
218 to 220 °C
Cc1ccc(-c2cc(-c3ccc(C)cc3)n3nc(-c4ccccc4)nc3n2)cc1
224 to 226 °C
COc1ccc(-c2cc(-c3ccc(C)cc3)nc3nc(-c4ccccc4)nn23)cc1
222 to 224 °C
Cc1ccc(-c2cc(-c3ccc(Cl)cc3)nc3nc(-c4ccccc4)nn23)cc1
248 to 250 °C

Let us move to another entry and its melting point.
For this compound ( Clc1ccc(-c2cc(-c3ccccc3)nc3nc(-c4ccccc4)nn23)cc1 ), measured melting point is 214 to 216 °C

---

Test system: P. aeruginosa
measurement-notes: Minimum bactericidal concentration (MBC) assay
Assay type: cell-based, Pseudomonas aeuroginosa
endpoint: MBC (µM)
Respond with the bare value in µM.

Look over these answered cases.
COc1ccc(-c2cc(-c3ccc(OC)cc3)n3nc(-c4ccccc4)nc3n2)cc1
0.098
COc1ccc(-c2cc(-c3ccc(C)cc3)n3nc(-c4ccccc4)nc3n2)cc1
0.084
COc1ccc(-c2cc(-c3ccc(Cl)cc3)n3nc(-c4ccccc4)nc3n2)cc1
0.094

Let us move to another entry and its MBC.
For this compound ( O=C(O)c1cn(C2CC2)c2cc(N3CCNCC3)c(F)cc2c1=O [Ciprofloxacin, reference compound] ), measured MBC is 0.09

---

Tested on: P. aeruginosa
measurement-notes: MIC assay, 2-fold serial dilution in 96-well microtiter plate
Format: cell-based, Pseudomonas aeuroginosa (ATCC 10145)
run-conditions: Pseudomonas aeruginosa, read-out: MIC
Procedure: The outcomes of this in vitro assay test align with the results of the antimicrobial sensitivity test. Appendix A (Supplementary File) provides experimental details. In 96-well microtiter plates and […] of fresh bacterial culture of a single McFarland unit overnight, a double serial dilution of each compound […] in sterile standard saline were prepared to every single source well. […] The plates were incubated at 37 °C overnight. […]
endpoint: MIC (µM)
Respond with the bare value in µM.

Look over these answered cases.
COc1ccc(-c2cc(-c3ccc(OC)cc3)n3nc(-c4ccccc4)nc3n2)cc1
0.068
COc1ccc(-c2cc(-c3ccc(Cl)cc3)n3nc(-c4ccccc4)nc3n2)cc1
0.064
COc1ccc(-c2cc(-c3ccccc3)nc3nc(-c4ccccc4)nn23)cc1
0.075

For this molecule ( COc1ccc(-c2cc(-c3ccc(C)cc3)n3nc(-c4ccccc4)nc3n2)cc1 ), measured MIC is 0.053

For this molecule ( O=C(O)c1cn(C2CC2)c2cc(N3CCNCC3)c(F)cc2c1=O [Ciprofloxacin, reference compound] ), measured MIC is 0.06

---

As shown below, each of these compounds has a reported MIC value.
System: C. albicans
measurement-notes: Antifungal MIC assay, 2-fold serial dilution
Type: cell-based, Candida albicans
run-conditions: Candida albicans, read-out: MIC
Respond with the bare value in µM.

Look over these answered cases.
COc1ccc(-c2cc(-c3ccccc3)nc3nc(-c4ccccc4)nn23)cc1
26.3
COc1ccc(-c2cc(-c3ccc(Cl)cc3)n3nc(-c4ccccc4)nc3n2)cc1
21.9

For this compound ( COc1ccc(-c2cc(-c3ccc(OC)cc3)n3nc(-c4ccccc4)nc3n2)cc1 ), measured MIC is 23.7

For this compound ( COc1ccc(-c2cc(-c3ccc(C)cc3)n3nc(-c4ccccc4)nc3n2)cc1 ), measured MIC is 19.5

For this compound ( OC(Cn1cncn1)(Cn1cncn1)c1ccc(F)cc1F [Fluconazole, reference compound] ), measured MIC is 17.5
